test system: Pseudomonas aeruginosa; assay: Growth inhibition of Pseudomonas aeruginosa at 100 ug/ml by cup-plate method; format: functional, organism-based
The source made the active and inactive calls. No cut-off for these calls is given here.
Outcomes: Yes for active, No for inactive

| SMILES_TEXT | LABEL_VALUE |
| --- | --- |
| C=CCn1c(-c2ccccc2)c(C=C2C(=O)NC(=O)NC2=O)c2ccccc21 | Yes |
| CCCCn1c(-c2ccccc2)c(C=C2C(=O)NC(=O)NC2=O)c2ccccc21 | No |
| O=C1NC(=O)C(=Cc2c(-c3ccccc3)n(CC(=O)c3ccc(Cl)cc3)c3ccccc23)C(=O)N1 | Yes |
| CCn1c(-c2ccccc2)c(C=C2C(=O)NC(=O)NC2=O)c2ccccc21 | Yes |
| CC1(C)S[C@@H]2[C@H](NC(=O)[C@H](N)c3ccccc3)C(=O)N2[C@H]1C(=O)O | Yes |
